Molecular target: ZAP-70 (Homo sapiens, UniProt P43403)
Construct: endogenous in cells
Sequence (P43403 whole entry): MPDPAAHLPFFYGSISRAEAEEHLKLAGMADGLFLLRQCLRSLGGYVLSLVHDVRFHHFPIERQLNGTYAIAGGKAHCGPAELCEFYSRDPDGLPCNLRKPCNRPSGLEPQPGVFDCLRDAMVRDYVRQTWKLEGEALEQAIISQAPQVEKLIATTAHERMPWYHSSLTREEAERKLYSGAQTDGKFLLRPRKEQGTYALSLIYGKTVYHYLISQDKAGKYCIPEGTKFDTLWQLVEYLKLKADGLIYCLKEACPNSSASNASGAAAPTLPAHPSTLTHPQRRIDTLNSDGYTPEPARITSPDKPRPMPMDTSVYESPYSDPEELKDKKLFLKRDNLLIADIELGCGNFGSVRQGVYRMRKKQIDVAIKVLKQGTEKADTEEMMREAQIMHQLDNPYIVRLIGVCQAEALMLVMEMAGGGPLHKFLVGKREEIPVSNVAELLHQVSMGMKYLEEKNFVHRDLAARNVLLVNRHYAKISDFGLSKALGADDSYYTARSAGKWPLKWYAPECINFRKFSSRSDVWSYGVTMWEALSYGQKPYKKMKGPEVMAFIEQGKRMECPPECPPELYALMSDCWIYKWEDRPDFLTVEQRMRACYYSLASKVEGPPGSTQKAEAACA
Assay: ZAP-70 kinobeads assay
Settings: cell lysate, dot blot with ZAP-70 antibody
Listed molecules paired with reported IC50

>  <Smiles code>
Cn1cc(Nc2ncc(F)c(Nc3ccccc3NS(C)(=O)=O)n2)cn1

>  <IC50>
0.1 to 1 µM

$$$$
>  <Smiles code>
COc1ccc(Nc2nc(Nc3cc(C)nn3CCO)ncc2Cl)c(NS(C)(=O)=O)c1

>  <IC50>
0.1 to 1 µM

$$$$
>  <Smiles code>
COc1ccc(Nc2nc(Nc3cc(C)nn3C(C)C)ncc2Cl)c(NS(C)(=O)=O)c1

>  <IC50>
0.1 to 1 µM

$$$$
>  <Smiles code>
COc1ccc(Nc2nc(Nc3cn(C)nc3C)ncc2Cl)c(NS(C)(=O)=O)c1

>  <IC50>
≤ 0.1 µM

$$$$
>  <Smiles code>
CCCCn1nc(C)cc1Nc1ncc(Cl)c(Nc2ccc(OC)cc2NS(C)(=O)=O)n1

>  <IC50>
≤ 0.1 µM

$$$$
>  <Smiles code>
COc1ccc(Nc2nc(Nc3cnn(C)c3C)ncc2Cl)c(NS(C)(=O)=O)c1

>  <IC50>
≤ 0.1 µM

$$$$
>  <Smiles code>
COc1ccc(Nc2nc(Nc3ccnn3CC3CC3)ncc2Cl)c(NS(C)(=O)=O)c1

>  <IC50>
0.1 to 1 µM

$$$$

====

Biological target: JAK3 (Homo sapiens, UniProt P52333)
Construct: endogenous in cells
Sequence (P52333 whole entry): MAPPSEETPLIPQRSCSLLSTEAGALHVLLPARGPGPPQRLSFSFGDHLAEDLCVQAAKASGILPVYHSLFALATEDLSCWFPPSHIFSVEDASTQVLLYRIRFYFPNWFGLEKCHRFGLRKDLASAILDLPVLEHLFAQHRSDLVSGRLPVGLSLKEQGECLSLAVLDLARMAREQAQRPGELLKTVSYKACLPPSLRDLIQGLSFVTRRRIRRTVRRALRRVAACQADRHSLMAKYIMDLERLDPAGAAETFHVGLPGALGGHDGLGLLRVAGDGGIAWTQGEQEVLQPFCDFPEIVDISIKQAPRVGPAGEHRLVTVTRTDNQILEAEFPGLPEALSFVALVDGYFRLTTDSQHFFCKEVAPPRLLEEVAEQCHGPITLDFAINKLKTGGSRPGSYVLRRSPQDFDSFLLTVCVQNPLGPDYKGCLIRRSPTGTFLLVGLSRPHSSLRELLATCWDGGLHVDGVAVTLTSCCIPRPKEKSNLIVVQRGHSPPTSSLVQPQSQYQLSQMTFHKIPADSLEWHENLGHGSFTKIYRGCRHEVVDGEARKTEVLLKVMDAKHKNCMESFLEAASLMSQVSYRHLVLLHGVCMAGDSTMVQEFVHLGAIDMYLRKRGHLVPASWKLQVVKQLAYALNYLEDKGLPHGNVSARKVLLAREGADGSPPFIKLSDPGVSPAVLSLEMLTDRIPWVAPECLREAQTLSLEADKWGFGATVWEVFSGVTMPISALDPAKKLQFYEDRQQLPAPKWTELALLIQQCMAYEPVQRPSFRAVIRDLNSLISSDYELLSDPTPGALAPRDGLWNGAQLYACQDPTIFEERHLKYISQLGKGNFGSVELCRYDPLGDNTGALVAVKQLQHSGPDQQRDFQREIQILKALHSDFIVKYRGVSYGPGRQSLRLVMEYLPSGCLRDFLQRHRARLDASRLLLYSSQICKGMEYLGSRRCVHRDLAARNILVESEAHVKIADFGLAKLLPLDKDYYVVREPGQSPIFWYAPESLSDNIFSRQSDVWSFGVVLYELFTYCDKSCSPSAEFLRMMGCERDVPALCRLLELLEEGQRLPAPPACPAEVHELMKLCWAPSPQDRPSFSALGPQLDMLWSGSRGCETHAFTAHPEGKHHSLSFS
Experiment: JAK3 kinobeads assay
Details: cell lysate, dot blot with JAK3 specific antibody
pIC50: −log10 of the molar value.
Measurement kind: pIC50

>  <Smiles code>
COc1ccc(Nc2nc(Nc3ccn(C)n3)ncc2F)c(NS(C)(=O)=O)c1

>  <Tested system>
JAK3 (Homo sapiens, UniProt P52333)

>  <Measurement kind>
pIC50

>  <Reported>
6.00 to 7.00

$$$$
>  <Smiles code>
CCNC(=O)c1cc(Nc2ncc(Cl)c(Nc3ccccc3NS(C)(=O)=O)n2)nn1C

>  <Tested system>
JAK3 (Homo sapiens, UniProt P52333)

>  <Measurement kind>
pIC50

>  <Reported>
≥ 7.00

$$$$
>  <Smiles code>
COc1ccc(Nc2nc(Nc3cc(C)n(C)n3)ncc2F)c(NS(C)(=O)=O)c1

>  <Tested system>
JAK3 (Homo sapiens, UniProt P52333)

>  <Measurement kind>
pIC50

>  <Reported>
6.00 to 7.00

$$$$
>  <Smiles code>
CCS(=O)(=O)Nc1ccccc1Nc1nc(Nc2cnn(C)c2)ncc1Cl

>  <Tested system>
JAK3 (Homo sapiens, UniProt P52333)

>  <Measurement kind>
pIC50

>  <Reported>
≥ 7.00

$$$$
>  <Smiles code>
CS(=O)(=O)Nc1ccccc1Nc1nc(Nc2cnn(CCCC#N)c2)ncc1F

>  <Tested system>
JAK3 (Homo sapiens, UniProt P52333)

>  <Measurement kind>
pIC50

>  <Reported>
≥ 7.00

$$$$
>  <Smiles code>
COc1ccc(Nc2nc(Nc3cc(C)nn3C)ncc2Cl)c(NS(C)(=O)=O)c1

>  <Tested system>
JAK3 (Homo sapiens, UniProt P52333)

>  <Measurement kind>
pIC50

>  <Reported>
≥ 7.00

$$$$
>  <Smiles code>
CC(C)n1ccc(Nc2ncc(Br)c(Nc3ccccc3NS(C)(=O)=O)n2)n1

>  <Tested system>
JAK3 (Homo sapiens, UniProt P52333)

>  <Measurement kind>
pIC50

>  <Reported>
≥ 7.00

$$$$
>  <Smiles code>
CCn1nc(C)cc1Nc1ncc(Cl)c(Nc2ccc(OC)cc2NS(C)(=O)=O)n1

>  <Tested system>
JAK3 (Homo sapiens, UniProt P52333)

>  <Measurement kind>
pIC50

>  <Reported>
6.00 to 7.00

$$$$
>  <Smiles code>
CC(C)n1ccc(Nc2ncc(Cl)c(Nc3ccccc3NS(C)(=O)=O)n2)n1

>  <Tested system>
JAK3 (Homo sapiens, UniProt P52333)

>  <Measurement kind>
pIC50

>  <Reported>
≥ 7.00

$$$$
>  <Smiles code>
Cc1cc(Nc2ncc(Cl)c(Nc3ccccc3NS(C)(=O)=O)n2)nn1C

>  <Tested system>
JAK3 (Homo sapiens, UniProt P52333)

>  <Measurement kind>
pIC50

>  <Reported>
≥ 7.00

$$$$
>  <Smiles code>
CNC(=O)c1cc(Nc2ncc(Cl)c(Nc3ccccc3NS(C)(=O)=O)n2)nn1C

>  <Tested system>
JAK3 (Homo sapiens, UniProt P52333)

>  <Measurement kind>
pIC50

>  <Reported>
≥ 7.00

$$$$
